Experiment: passive permeability, PAMPA, ADME assay (AID 1508612)
Conditions: pH 7.4, 30.0 min, 50.0 µM
Entries and their Papp values follow.

In the examples that follow, each entry is paired with its recorded Papp.
Can you look up the measured Papp of CN1CCN(c2ccc(Nc3c4ccccc4nc4ccccc34)cc2)CC1 for me? > 1000 ×10⁻⁶ cm/s

Can you look up the measured Papp of [2H]C([2H])(Nc1nc(-c2ccccc2C([2H])(C([2H])([2H])[2H])C([2H])([2H])[2H])ncc1C)c1ccc(-n2ccnn2)cc1 for me? > 1000 ×10⁻⁶ cm/s

Can you look up the measured Papp of O=C(NCc1cccc(C(F)(F)F)c1)c1ccc(CN2CCCCC2)cc1 for me? > 1000 ×10⁻⁶ cm/s

Can you look up the measured Papp of COc1cccc(-n2nc(C(=O)O)cc2-c2ccc(C3CCCCC3)c(Cl)c2)c1 for me? > 1000 ×10⁻⁶ cm/s

Can you look up the measured Papp of CCC[C@H](NC(=O)C(C#N)=Cc1cccc(Br)n1)c1ccccc1 for me? > 1000 ×10⁻⁶ cm/s

Next:
Can you look up the measured Papp of NC(=O)C1CCN(c2nc(-c3ccc(Br)cc3)cs2)CC1 for me? 241 ×10⁻⁶ cm/s

Can you look up the measured Papp of Cc1ccccc1C(=O)N1CCC(C(=O)N2CCC(N3Cc4ccccc4C3=O)CC2)CC1 for me? 50.8 ×10⁻⁶ cm/s

Can you look up the measured Papp of O=C1CCCC2=C1C(c1[nH]ncc1Br)N=C(Nc1nc3ccccc3o1)N2 (stereo not drawn) for me? 797 ×10⁻⁶ cm/s

Can you look up the measured Papp of Cc1cnc(-c2ccccc2C(F)F)nc1NCc1ccc(-n2ccnn2)cc1 for me? > 1000 ×10⁻⁶ cm/s

Can you look up the measured Papp of COc1ccc(-n2nc(C3CCCN(C(=O)C4CC4)C3)[nH]c2=O)cc1 (stereo not drawn) for me? 113 ×10⁻⁶ cm/s

Can you look up the measured Papp of Cc1sc(NC(=O)Cc2ccc3c(c2)OCO3)nc1-c1ccc2c(c1)CCN2C(=O)c1ccccc1F for me? 1.4 ×10⁻⁶ cm/s

Can you look up the measured Papp of FC(F)(F)c1cccc(N2CCN(C(=S)Nc3ccccn3)CC2)c1 for me? > 1000 ×10⁻⁶ cm/s

Can you look up the measured Papp of CC(C)c1nc2oc3c(NCCN(C)C)ncnc3c2c2c1COC(C)(C)C2 for me? > 1000 ×10⁻⁶ cm/s
